Test: Human liver microsomal stability of compound in microsomal protein, PBS buffer pH 7.4, NADPH, glucose-6-phosphate and glucose-6-phosphate dehydrogenase media. Aliquotes were taken at 5 time points and after stopping the reaction, supernatants were analyzed using HPLC coupled with a tandem mass spectrometer. The elimination constant, half-life, and intrinsic clearance are determined as results using linear regression analysis.
Format: ADME, microsomes, Microsome
Details: liver microsomes
PARAMETER MEASURED: half-life

Sample answers from the record:
# get_value(readout='half-life', item= "O=C(O)Cn1ncc2cc(-c3cc(Cl)cc(NC(=O)OCc4ccccc4)c3)ccc21" )
> 2.89 h

# get_value(readout='half-life', item= "O=C(Nc1ccc2c(c1)CNC2)c1cc(Cl)cc2[nH]ncc12" )
> 2.89 h

Please turn your attention to the following entry.
# get_value(readout='half-life', item= "Cn1cc2c(C(=O)Nc3ccc4c(c3)CNC4)cc(F)cc2n1" )
> 2.89 h

---

Test: Mouse liver microsomal stability of compound in microsomal protein, PBS buffer pH 7.4, NADPH, glucose-6-phosphate and glucose-6-phosphate dehydrogenase media. Aliquotes were taken at 5 time points and after stopping the reaction, supernatants were analyzed using HPLC coupled with a tandem mass spectrometer. The elimination constant, half-life, and intrinsic clearance are determined as results using linear regression analysis.
Type: ADME, microsomes, Microsome
Settings: liver microsomes
I'd appreciate it if you could supply half-life values for the items below.
Numbers only, in h.

Sample answers from the record:
# get_value(readout='half-life', item= "O=C(Nc1cc2c(cc1C1CC1)CNC2)c1cc(F)cc2[nH]ncc12" )
0.321

# get_value(readout='half-life', item= "CC(C)NC(=O)[C@H](Nc1ccc2c(c1)CNC2)c1cc(Cl)cc2[nH]c(-c3ccccc3)nc12" )
2.52

# get_value(readout='half-life', item= "O=C(Nc1ccc2c(c1)CNC2)c1cc(F)cc2[nH]ncc12" )
0.154

# get_value(readout='half-life', item= "O=C(Nc1ccc2c(c1)CNC2)c1cc(Cl)cc2c1cnn2C1CCC1" )
2.08

# get_value(readout='half-life', item= "O=C(/C=C/c1ccccc1)C(=O)N1CCN(CCc2ccccc2)CC1" )
0.153

# get_value(readout='half-life', item= "O=C(Nc1cc2c(c(C3=CCOCC3)c1)CNC2)c1cc(F)cc2[nH]ncc12" )
0.184

---
# get_value(readout='half-life', item= "Cn1c(=O)[nH]c2c(C(=O)Nc3ccc4c(c3)CNC4)cc(Br)cc21" )
2.23

---

Assay: Mouse liver microsomal stability of compound in microsomal protein, PBS buffer pH 7.4, NADPH, glucose-6-phosphate and glucose-6-phosphate dehydrogenase media. Aliquotes were taken at 5 time points and after stopping the reaction, supernatants were analyzed using HPLC coupled with a tandem mass spectrometer. The elimination constant, half-life, and intrinsic clearance are determined as results using linear regression analysis.
Format: ADME, microsomes, Microsome
Conditions: microsomes
I'd appreciate it if you could supply Remaining values for the items below.
Answers are plain numbers, in %.

# get_value(readout='Remaining', item= "CO[C@H]1C[C@H](n2ncc3c(C(=O)Nc4ccc5c(c4)CNC5)cc(Cl)cc32)C1" )
91.321

Hello, I would appreciate it if you could give Remaining for each entry below.
1. NCc1cccc(NC(=O)[C@@H](NC(=O)OCc2ccccc2)c2ccc(OCc3ccccc3)cc2)c1
2. COc1cc(Cc2c(-c3ccc(F)cc3)noc2C)nc(N2CCNCC2)n1
3. CCCCNC(=O)[C@H](Nc1ccc2c(c1)CNC2)c1cc(Cl)cc(C2CC2)c1
4. CC(C)n1cc2c(C(=O)Nc3ccc4c(c3)CNC4)cc(Cl)cc2n1
5. O=C(/C=C/c1ccccc1)C(=O)N1CCN(CCc2ccccc2)CC1
6. Cn1ncc2c(C(=O)Nc3ccc4c(c3)CNC4)cc(Cl)cc21
7. O=C(Nc1cc2c(c(-c3c[nH]c(=O)c(F)c3)c1)CNC2)c1cc(F)cc2[nH]ncc12
8. O=C(Nc1ccc2c(c1)CNC2)c1cc(Cl)cc2c1cnn2C1CCC1

[103, 52, 73.231, 89.02, 5, 63.701, 2.163, 78.077]

---

I'd appreciate it if you could supply half-life values for the items below.
Experiment: Human liver microsomal stability of compound in microsomal protein, PBS buffer pH 7.4, NADPH, glucose-6-phosphate and glucose-6-phosphate dehydrogenase media. Aliquotes were taken at 5 time points and after stopping the reaction, supernatants were analyzed using HPLC coupled with a tandem mass spectrometer. The elimination constant, half-life, and intrinsic clearance are determined as results using linear regression analysis.
Type: ADME, microsomes, Microsome
Settings: liver microsomes

Hello, I would appreciate it if you could give half-life for each entry below.
1. O=C(Nc1ccc2c(c1)CNC2)c1cc(F)cc2c1CCC2
2. Cc1ccc(NC(=O)c2cc(Cl)cc(NC(=O)OCc3ccccc3)c2)cc1CN
3. Cc1cc([C@H](Nc2ccc3c(c2)CNC3)C(=O)NCC(F)F)cc(C(F)(F)F)c1

1. > 2.89 h
2. > 2.89 h
3. > 2.89 h

---

Experiment: Mouse liver microsomal stability of compound in microsomal protein, PBS buffer pH 7.4, NADPH, glucose-6-phosphate and glucose-6-phosphate dehydrogenase media. Aliquotes were taken at 5 time points and after stopping the reaction, supernatants were analyzed using HPLC coupled with a tandem mass spectrometer. The elimination constant, half-life, and intrinsic clearance are determined as results using linear regression analysis.
Assay type: ADME, microsomes, Microsome
Conditions: liver microsomes
I'd appreciate it if you could supply microsomal CLint values for the items below.

Sample answers from the record:
# get_value(readout='microsomal CLint', item= "O=C1Cc2c(cccc2C(=O)Nc2ccc3c(c2)CNC3)N1" )
< 10 µL/min/mg

# get_value(readout='microsomal CLint', item= "O=C1Cc2cc(C(=O)Nc3ccc4c(c3)CNC4)ccc2N1" )
< 10 µL/min/mg

# get_value(readout='microsomal CLint', item= "Nc1ccncc1-c1cc(F)cc(C(=O)Nc2ccc3c(c2)CNC3)c1" )
< 10 µL/min/mg

# get_value(readout='microsomal CLint', item= "Cn1cc2c(C(=O)Nc3ccc4c(c3)CNC4)cc(F)cc2n1" )
18.2 µL/min/mg

# get_value(readout='microsomal CLint', item= "O=C1Cc2c(cc(F)cc2C(=O)Nc2ccc3c(c2)CNC3)N1" )
< 10 µL/min/mg

# get_value(readout='microsomal CLint', item= "CO[C@H]1C[C@H](n2ncc3c(C(=O)Nc4ccc5c(c4)CNC5)cc(Cl)cc32)C1" )
< 10 µL/min/mg

# get_value(readout='microsomal CLint', item= "COc1ccc(-c2nc3c(C(=O)Nc4ccc5c(c4)CNC5)cc(F)cc3[nH]2)nn1" )
16.9 µL/min/mg

# get_value(readout='microsomal CLint', item= "O=C(Nc1cc2c(c(C3=CCS(=O)(=O)CC3)c1)CNC2)c1cc(F)cc2[nH]ncc12" )
96.9 µL/min/mg

# get_value(readout='microsomal CLint', item= "O=C(Nc1ccc2c(c1)CNC2)c1cc(Br)cc2[nH]c(-c3ccccc3)nc12" )
43.8 µL/min/mg

# get_value(readout='microsomal CLint', item= "O=C(NCC(F)F)[C@H](Nc1ccc2c(c1)CNC2)c1cc(Br)cc2nc[nH]c12" )
< 10 µL/min/mg

Hello, I would appreciate it if you could give microsomal CLint for each entry below.
1. COCCNC(=O)[C@H](Nc1ccc2c(c1)CNC2)c1cc(Cl)cc(C2CC2)c1
2. O=C(NCC(F)F)[C@H](Nc1ccc2c(c1)CNC2)c1cc(Cl)cc2ccoc12
3. CNC(=O)c1cc(Br)cc([C@H](Nc2ccc3c(c2)CNC3)C(=O)NCC(F)F)c1
4. O=C(NCC(F)F)[C@H](Nc1cnc2c(c1)CNC2)c1cc(Cl)cc(C2CC2)c1
5. COc1cc(C#N)cc([C@H](Nc2ccc3c(c2)CNC3)C(=O)NCC(F)F)c1
6. N#CCCNC(=O)[C@H](Nc1ccc2c(c1)CNC2)c1cc(Cl)cc(C2CC2)c1

["11.7 µL/min/mg", "< 10 µL/min/mg", "< 10 µL/min/mg", "< 10 µL/min/mg", "< 10 µL/min/mg", "< 10 µL/min/mg"]

---

I'd appreciate it if you could supply Remaining values for the items below.
Assay: Human liver microsomal stability of compound in microsomal protein, PBS buffer pH 7.4, NADPH, glucose-6-phosphate and glucose-6-phosphate dehydrogenase media. Aliquotes were taken at 5 time points and after stopping the reaction, supernatants were analyzed using HPLC coupled with a tandem mass spectrometer. The elimination constant, half-life, and intrinsic clearance are determined as results using linear regression analysis.
Format: ADME, microsomes, Microsome
Settings: microsomes
Remember to follow the number with its unit.

Sample answers from the record:
# get_value(readout='Remaining', item= "O=C(NCC(F)F)[C@H](Nc1ccc2c(c1)CNC2)c1cc(Cl)cc2ccoc12" )
100.816%

# get_value(readout='Remaining', item= "NCc1cccc(CNC(=O)[C@@H](NC(=O)OCc2ccccc2)c2ccc(OCc3ccccc3)cc2)c1" )
94.901%

# get_value(readout='Remaining', item= "O=C(/C=C/c1ccccc1)C(=O)N1CCN(CCc2ccccc2)CC1" )
6%

Hello, I would appreciate it if you could give Remaining for each entry below.
1. CNC(=O)c1cc(Cl)ccc1NS(=O)(=O)c1ccc(Oc2ccccc2Cl)cc1
2. CNC(=O)c1cc(Cl)c(F)cc1NS(=O)(=O)c1ccc(Oc2ccccc2Cl)cc1

1: 18%; 2: 32.8%

Hello, I would appreciate it if you could give Remaining for each entry below.
1. Cn1ncc2c(C(=O)Nc3ccc4c(c3)CNC4)cc(Cl)cc21
2. CCCC[C@@H](NC(=O)OC(C)(C)C)C(=O)N[C@@H](C(=O)NCc1ccc(CN)cc1)c1ccc(OCc2ccccc2)cc1
3. NCc1cc(Cl)cc(C(=O)Nc2ccc3c(c2)CNC3)c1
4. O=C(Nc1cc(Cl)cc(-c2ccc3[nH]c(C(=O)O)cc3c2)c1)OCc1ccccc1
5. CO[C@H]1C[C@H](n2ncc3c(C(=O)Nc4ccc5c(c4)CNC5)cc(Cl)cc32)C1
6. N#CCCNC(=O)[C@H](Nc1ccc2c(c1)CNC2)c1cc(Cl)cc(C2CC2)c1
7. CNC(=O)[C@H](Nc1ccc(-c2nnn[nH]2)cc1)c1cc(Cl)cc(C2CC2)c1

1. 91.353%
2. 40.588%
3. 0%
4. 92.268%
5. 104.617%
6. 90.394%
7. 90.289%

Hello, I would appreciate it if you could give Remaining for each entry below.
1. O=C(Nc1ccc2c(c1)CNC2)c1cccc2[nH]c(C(F)(F)F)cc12
2. O=C(Nc1ccc2c(c1)CNC2)c1cc(Br)cc2[nH]c(-c3ccccc3)nc12

78.018%
80.427%

Hello, I would appreciate it if you could give Remaining for each entry below.
1. Cn1ncc2c(C(=O)Nc3ccc4c(c3)CNC4)cc(Br)cc21
2. c1ccc2c(CN3CCC(c4c[nH]c5cccnc45)CC3)c[nH]c2c1

1. 83.745%
2. 78.186%

Values from ChEMBL document CHEMBL5665440
